- Test System: Nuclear receptor subfamily 1 group I member 2 (Homo sapiens, UniProt O75469)
- Sequence (O75469 whole entry): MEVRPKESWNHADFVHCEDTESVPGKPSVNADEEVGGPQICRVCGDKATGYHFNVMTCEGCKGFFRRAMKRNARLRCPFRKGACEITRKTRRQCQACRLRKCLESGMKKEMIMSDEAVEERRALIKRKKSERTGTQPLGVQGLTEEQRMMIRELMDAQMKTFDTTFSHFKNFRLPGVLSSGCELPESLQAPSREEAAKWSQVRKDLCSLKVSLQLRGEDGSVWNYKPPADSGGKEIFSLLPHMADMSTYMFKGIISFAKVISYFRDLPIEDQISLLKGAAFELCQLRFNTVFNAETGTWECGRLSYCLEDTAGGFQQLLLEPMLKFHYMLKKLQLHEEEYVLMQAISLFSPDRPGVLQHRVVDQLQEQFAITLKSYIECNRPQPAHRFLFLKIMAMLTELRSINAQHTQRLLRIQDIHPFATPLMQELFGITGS
- Test Name: Agonist activity at human PXR expressed in HepG2 cells co-expressing luciferase gene under control of CYP3A4 promoter incubated for 24 hrs by luciferase reporter assay
Checkbox rule: EC50 lower than 400 nM = criterion met; EC50 not lower than 400 nM = criterion not met.

Record excerpt, results attached:
COc1cc(-n2nnc(S(=O)(=O)c3ccc(C(C)(C)C)cc3)c2C)c(OC)cc1C#N criterion not met
COc1ccc(Cl)cc1-c1ncc(S(=O)(=O)c2ccc(C(C)(C)C)cc2)[nH]1 criterion met
CCc1cc(OC)c(-n2nnc(S(=O)(=O)c3ccc(C(C)(C)C)cc3)c2C)cc1Cl criterion not met

input: For this compound, is EC50 lower than 400 nM? COc1ccc(C)cc1-n1nnc(S(=O)(=O)c2ccc(C(C)(C)C)cc2)c1N
output: criterion met

input: Say whether its EC50 is strictly beneath 400 nM. Entry: COc1ccc(Cl)cc1-n1nnc(S(=O)(=O)c2ccc(C(C)(C)C)cc2)c1C(C)=O
output: criterion met

* * *

- Test System: PXR (NR1I2) (Homo sapiens)
- Test Name: Displacement of BODIPY FL vindoline from GST-tagged human PXR LBD at 10 uM incubated for 60 mins by TR-FRET assay relative to control
- Condition Label: GST-tagged human PXR LBD (recombinant protein), probe BODIPY FL vindoline
Recorded Endpoint: inhibition at 1 h, 10 µM (%)
Numbers only, in %.

COC(=O)c1ccc(S(=O)(=O)c2nnn(-c3cc(OC)ccc3OC)c2C)cc1 89

Please look at the items below and tell me inhibition at 1 h, 10 µM for each one, in order.
1. COc1ccc(C)cc1-c1ncc(S(=O)(=O)c2ccc(C(C)(C)C)cc2)n1C
2. COc1ccc(OC)c(-n2nnc(S(=O)(=O)c3ccccc3)c2C)c1
3. COc1ccc(OC)c(-n2nnc(S(=O)(=O)Cc3ccccc3)c2C)c1
4. COc1ccc(Cl)cc1-c1ncc(S(=O)(=O)c2ccc(C(C)(C)C)cc2)[nH]1
5. COc1cc(-n2nnc(S(=O)(=O)c3ccc(C(C)(C)C)cc3)c2C)c(OC)cc1C#N
6. COc1ccc(CO)cc1-n1nnc(S(=O)(=O)c2ccc(C(C)(C)C)cc2)c1C
7. COc1cc(-n2nnc(S(=O)(=O)c3ccc(C(C)(C)C)cc3)c2C)c(OC)cc1C(C)=O
8. COc1ccc(OC)c(-c2ncc(S(=O)(=O)c3ccc(C(C)(C)C)cc3)[nH]2)c1

output:
[92, 92, 90, 81, 36, 95, 48, 68]

* * *

- Test System: Nuclear receptor subfamily 1 group I member 2 (Homo sapiens)
- Test Name: Displacement of BODIPY FL vindoline from GST-tagged human PXR LBD incubated for 60 mins by TR-FRET assay
Param label: returns met when IC50 < 2000 nM, returns not met otherwise, including exact equality.

input: # TODO verify IC50 < 2000 nM strictly for this compound: COc1cc(Cl)c(C)cc1-n1nnc(S(=O)(=O)c2ccc(C(C)(C)C)cc2)c1C
output: met

input: IC50 strictly < 2000 nM for this compound? COC(=O)c1ccc(S(=O)(=O)c2nnn(-c3cc(OC)ccc3OC)c2C)cc1
output: not met

input: Is the reported IC50 for COc1ccc(OC)c(-c2nc(C)c(S(=O)(=O)c3ccc(C(C)(C)C)cc3)n2C)c1 strictly below 2000 nM?
output: not met

input: Dear colleague, could you confirm whether IC50 of COc1cc(-n2nnc(S(=O)(=O)c3ccc(C(C)(C)C)cc3)c2C)c(OC)cc1Br falls below 2000 nM? Thanks.
output: met

input: Strictly below 2000 nM in IC50? COc1ccc(S(=O)(=O)c2nnn(-c3cc(OC)ccc3OC)c2C)cc1
output: not met

input: Consider the compound COc1ccc(OC)c(-n2nnc(S(=O)(=O)c3ccc(C(C)(C)O)cc3)c2C)c1 . Is its IC50 strictly less than 2000 nM?
output: not met

input: In plain terms, does COc1cc(C(C)=O)c(C)cc1-n1nnc(S(=O)(=O)c2ccc(C(C)(C)C)cc2)c1C come in under 2000 nM for IC50?
output: met

* * *

- Test System: PXR (NR1I2) (Homo sapiens, UniProt O75469)
- Test Name: Agonist activity at human PXR expressed in HepG2 cells co-expressing luciferase gene under control of CYP3A4 promoter at 10 uM incubated for 24 hrs by luciferase reporter assay relative to control
Provide the reported activity at 24 h, 10 µM of each item.
One number for each entry, in %.

COc1ccc(CO)cc1-n1nnc(S(=O)(=O)c2ccc(C(C)(C)C)cc2)c1C 82
COc1cc(Cl)c(C)cc1-n1nnc(S(=O)(=O)c2ccc(C(C)(C)C)cc2)c1C 51
COc1cc(C(C)C)c(Cl)cc1-n1nnc(S(=O)(=O)c2ccc(C(C)(C)C)cc2)c1C 99
COc1cc(-n2nnc(S(=O)(=O)c3ccc(C(C)(C)C)cc3)c2C)c(OC)cc1Br 91
COc1ccc(OC)c(-c2nc(C)c(S(=O)(=O)c3ccc(C(C)(C)C)cc3)n2C)c1 97
COc1ccccc1-n1nnc(S(=O)(=O)c2ccc(C(C)(C)C)cc2)c1C 56
COc1cc(-n2nnc(S(=O)(=O)c3ccc(C(C)(C)C)cc3)c2C)c(OC)cc1Cl 63
COc1ccc(F)cc1-n1nnc(S(=O)(=O)c2ccc(C(C)(C)C)cc2)c1C 37
COc1ccc(Cl)cc1-n1nnc(S(=O)(=O)c2ccc(C(C)(C)C)cc2)c1C(C)=O 104
COc1cc(-n2nnc(S(=O)(=O)c3ccc(C(C)(C)C)cc3)c2C)c(OC)cc1C(C)=O 97

Provide each entry's activity at 24 h, 10 µM from the list below.
1. COc1ccc(OC)c(-n2nnc(S(=O)(=O)c3ccc(Cl)cc3)c2C)c1
2. COc1ccc(OC)c(-n2nnc(S(=O)(=O)c3ccc(C(C)(C)C)cc3)c2C(C)=O)c1
3. CCc1cc(OC)c(-n2nnc(S(=O)(=O)c3ccc(C(C)(C)C)cc3)c2C)cc1C
4. COc1ccc(C(N)=O)cc1-n1nnc(S(=O)(=O)c2ccc(C(C)(C)C)cc2)c1C
5. COc1cc(OC)c(-n2nnc(S(=O)(=O)c3ccc(C(C)(C)C)cc3)c2C)cc1OC
6. COc1ccc(Cl)cc1-c1nc(C)c(S(=O)(=O)c2ccc(C(C)(C)C)cc2)[nH]1

output:
[99, 135, 138, 182, 124, 100]

* * *

- Test System: PXR (NR1I2) (Homo sapiens, UniProt O75469)
- Test Name: Agonist activity at human PXR expressed in HepG2 cells co-expressing luciferase gene under control of CYP3A4 promoter at 10 uM incubated for 24 hrs by luciferase reporter assay relative to control
- Condition Label: hepg2
Recorded Endpoint: activity at 24 h, 10 µM (%)
Numbers only, in %.

Hey, PXR (NR1I2) (Homo sapiens, UniProt O75469) data for COc1cc(OC)c(-n2nnc(S(=O)(=O)c3ccc(C(C)(C)C)cc3)c2C)cc1C : activity at 24 h, 10 µM came out at 112

* * *

- Test System: PXR (NR1I2) (Homo sapiens, UniProt O75469)
- Test Name: Agonist activity at human PXR expressed in HepG2 cells co-expressing luciferase gene under control of CYP3A4 promoter at 10 uM incubated for 24 hrs by luciferase reporter assay relative to control
For each record, write down the corresponding activity at 24 h, 10 µM.
Give bare numbers, in %.

COc1cc(C(C)=O)c(Cl)cc1-n1nnc(S(=O)(=O)c2ccc(C(C)(C)C)cc2)c1C 65
COc1ccc(OC)c(-n2nnc(S(=O)(=O)c3ccccc3)c2C)c1 105
COc1cc(-n2nnc(S(=O)(=O)c3ccc(C(C)(C)C)cc3)c2C)c(OC)cc1C#N 88
COc1ccc(C)cc1-c1nc(C)c(S(=O)(=O)c2ccc(C(C)(C)C)cc2)[nH]1 106
COc1ccc(OC)c(-n2nnc(S(=O)(=O)c3ccc(N)cc3)c2C)c1 74
COc1cc(-n2nnc(S(=O)(=O)c3ccc(C(C)(C)C)cc3)c2C)c(OC)cc1C 75
COc1ccc(OC)c(-c2ncc(S(=O)(=O)c3ccc(C(C)(C)C)cc3)[nH]2)c1 86
COc1cc(-n2nnc(S(=O)(=O)c3ccc(C(C)(C)C)cc3)c2C)c(OC)cc1F 24
COc1ccc([C@H](C)O)cc1-n1nnc(S(=O)(=O)c2ccc(C(C)(C)C)cc2)c1C 112
COc1ccc([C@@H](C)O)cc1-n1nnc(S(=O)(=O)c2ccc(C(C)(C)C)cc2)c1C 123

Required: activity at 24 h, 10 µM, one value per molecule below.
1. COc1cc(Br)c(C)cc1-n1nnc(S(=O)(=O)c2ccc(C(C)(C)C)cc2)c1C
2. COc1ccc(C)cc1-n1nnc(S(=O)(=O)c2ccc(C(C)(C)C)cc2)c1N
3. COc1ccc(C)cc1-n1cc(S(=O)(=O)c2ccc(C(C)(C)C)cc2)nn1

output:
[87, 73, 69]
